Exercise: state measured selectivity ratio for each of the compounds provided.
- Method notes: Selectivity index, ratio of CC50 for MDCK cells to EC50 for Influenza A virus (A/Puerto Rico/8/34 (H1N1)) infected in MDCK cells
- Type: toxicity, cell-based
- Condition notes: dog, read-out: Ratio CC50/EC50
Just the number, please, no unit attached.

Problem: Given the compound `CCCCCCCCCCCC[N+]12CC[N+](CCC[N+]34CC[N+](CCCCCCCCCCCC)(CC3)CC4)(CC1)CC2` , what is its reported selectivity ratio?
Result: 7

Problem: Another compound: `CCCCCCCCCCCC[N+]12CC[N+](CCCCCCCC[N+]34CC[N+](CCCCCCCCCCCC)(CC3)CC4)(CC1)CC2`
Result: 2

Problem: Another compound: `CCCCCCCCCCCC[N+]12CC[N+](Cc3cccc(C[N+]45CC[N+](CCCCCCCCCCCC)(CC4)CC5)c3)(CC1)CC2`
Result: 6

Problem: Another compound: `C#CCOCCCCCN(CC[N+]12CC[N+](CCCCCCCCCCCC)(CC1)CC2)CC[N+]12CC[N+](CCCCCCCCCCCC)(CC1)CC2.[Cl-].[Cl-].[Cl-].[Cl-]`
Result: 1

Problem: Another compound: `CCCCCCCCCCCC[N+]12CC[N+](CCCCC[N+]34CC[N+](CCCCCCCCCCCC)(CC3)CC4)(CC1)CC2`
Result: 4

Problem: Another compound: `CCCCCCCCCCCC[N+]12CC[N+](Cc3nnn(CCCCCN=[N+]=[N-])c3C[N+]34CC[N+](CCCCCCCCCCCC)(CC3)CC4)(CC1)CC2.[Cl-].[Cl-].[Cl-].[Cl-]`
Result: 3

Problem: Another compound: CCOC(=O)C1=C[C@@H](OC(CC)CC)[C@H](NC(C)=O)[C@@H](N)C1 [OSELTAMIVIR]
Result: 1000

Problem: Another compound: `CCCCCCCCCCCC[N+]12CC[N+](Cc3ccc(C[N+]45CC[N+](CCCCCCCCCCCC)(CC4)CC5)cc3)(CC1)CC2`
Result: 3

Problem: Another compound: `CCCCCCCCCCCC[N+]12CC[N+](CCNCC[N+]34CC[N+](CCCCCCCCCCCC)(CC3)CC4)(CC1)CC2.[Cl-].[Cl-].[Cl-].[Cl-]`
Result: 4

Problem: Another compound: `CCCCCCCCCCCC[N+]12CC[N+](Cc3ccccc3C[N+]34CC[N+](CCCCCCCCCCCC)(CC3)CC4)(CC1)CC2`
Result: 2

Problem: Another compound: `CCCCCCCCCCCC[N+]12CC[N+](C/C=C/C[N+]34CC[N+](CCCCCCCCCCCC)(CC3)CC4)(CC1)CC2`
Result: 3
